Source listed as paper PMC12951568.

Test: Absorption and fluorescence emission spectra in DMF
Assay type: physicochemical
Conditions: in DMF
Protocol: An absorption spectrum of 2.475 mL of solvent (water, DMF, or PBS) was taken (i.e., absorption spectrum of baseline); then, 25 μL of stock solution was added to reach the final concentration of 1 μM in the cuvette, and the absorption and emission spectra were taken. Baseline of the solvent was subtracted from the obtained absorption spectrum to get the final absorption spectrum of the sample.
λA, absorption maximum in the Q-band reference
Give the value in nm but do not write nm after it.

These recorded examples may help you get a feel for the data.
OCc1cc(CO)cc(OCCCCSC2=C(SCCCCOc3cc(CO)cc(CO)c3)C3=Nc4c5ccccc5c5[n]4[Mg][n]4c(c6ccccc6c4=NC4=NC(=N5)c5ccccc54)=NC2=N3)c1    684
O=C([O-])c1cc(C(=O)[O-])cc(-c2cc3c(cc2-c2cc(C(=O)[O-])cc(C(=O)[O-])c2)C2=Nc4c5ccccc5c5[n]4[Zn][n]4c(c6ccccc6c4=NC3=N2)=NC2=NC(=N5)c3ccccc32)c1.[Na+].[Na+].[Na+].[Na+]    677
C[n+]1cccc(Oc2ccc3c(c2)C2=NC3=Nc3c4cc(Oc5ccc[n+](C)c5)ccc4c4[n]3[Zn][n]3c(c5ccc(Oc6ccc[n+](C)c6)cc5c3=NC3=NC(=N4)c4cc(Oc5ccc[n+](C)c5)ccc43)=N2)c1.F[P-](F)(F)(F)(F)F.F[P-](F)(F)(F)(F)F.F[P-](F)(F)(F)(F)F.F[P-](F)(F)(F)(F)F    674
O=S(=O)([O-])c1ccc(Oc2cccc3c2C2=Cc4c5cccc(Oc6ccc(S(=O)(=O)[O-])c7cccnc67)c5c5[n]4[Zn][n]4c(c6cccc(Oc7ccc(S(=O)(=O)[O-])c8cccnc78)c6c4=CC3=N2)=CC2=NC(=C5)c3cccc(Oc4ccc(S(=O)(=O)[O-])c5cccnc45)c32)c2ncccc12.[Na+].[Na+].[Na+].[Na+]    696
NCCc1ccc(Oc2cccc3c2C2=NC3=Nc3c4ccccc4c4[n]3[Zn][n]3c(c5ccccc5c3=N2)=NC2=NC(=N4)c3ccccc32)cc1 [C15Zn]    675

Entry Cc1cc(OCc2cn(CCO[C@@H]3O[C@H](CO)[C@@H](O)[C@H](O)[C@H]3O)nn2)c(Oc2cc3c(cc2Oc2c(OCc4cn(CCO[C@@H]5O[C@H](CO)[C@@H](O)[C@H](O)[C@H]5O)nn4)cc(C)cc2OCc2cn(CCO[C@@H]4O[C@H](CO)[C@@H](O)[C@H](O)[C@H]4O)nn2)C2=Nc4c5ccccc5c5[n]4[Zn][n]4c(c6ccccc6c4=NC3=N2)=NC2=NC(=N5)c3ccccc32)c(OCc2cn(CCO[C@@H]3O[C@H](CO)[C@@H](O)[C@H](O)[C@H]3O)nn2)c1 has what λA, absorption maximum in the Q-band?
672

Endpoint output: λA, absorption maximum in the Q-band of Cc1cc(Cn2cc[n+](C)c2)c(Oc2c3c(c(C)c(C)[n+]2C)C2=Nc4c5c(Oc6c(Cn7cc[n+](C)c7)cc(C)cc6Cn6cc[n+](C)c6)[n+](C)c(C)c(C)c5c5[n]4[Zn][n]4c(c6c(C)c(C)[n+](C)c(Oc7c(Cn8cc[n+](C)c8)cc(C)cc7Cn7cc[n+](C)c7)c6c4=NC4=NC(=N5)c5c4c(C)c(C)[n+](C)c5Oc4c(Cn5cc[n+](C)c5)cc(C)cc4Cn4cc[n+](C)c4)=NC3=N2)c(Cn2cc[n+](C)c2)c1.[I-].[I-].[I-].[I-].[I-].[I-].[I-].[I-].[I-].[I-].[I-].[I-] [C11Zn] . Value?
716

Can you look up the measured λA, absorption maximum in the Q-band of COCCOCCOCCOCCOc1ccc(OCCOCCOCCOCCOC)c2c1C1=NC2=Nc2c3ccccc3c3[n]2[Zn][n]2c(c4ccccc4c2=N1)=NC1=NC(=N3)c2ccccc21 for me?
689

---

Test system: MCF-7 (human breast adenocarcinoma)
Assay: Photodynamic activity (phototoxicity, neutral red uptake) on MCF-7
Format: cell-based
Settings: 12 h incubation, Xe-lamp 15 min, λ > 570 nm, 11.2 J/cm^2; mean ± SD; t.w. = this work
# EC50 values compiled below
Output spec: scalar in nM, unitless text.

Record excerpt, results attached:
CC[N+](CC)(CC)CCSc1cc2c(cc1SCC[N+](CC)(CC)CC)C1=Nc3c4cc(SCC[N+](CC)(CC)CC)c(SCC[N+](CC)(CC)CC)cc4c4[n]3[Zn][n]3c(c5cc(SCC[N+](CC)(CC)CC)c(SCC[N+](CC)(CC)CC)cc5c3=NC3=NC(=N4)c4cc(SCC[N+](CC)(CC)CC)c(SCC[N+](CC)(CC)CC)cc43)=NC2=N1.[I-].[I-].[I-].[I-].[I-].[I-].[I-].[I-]    280
C[n+]1cccc(Oc2ccc3c(c2)C2=NC3=Nc3c4cc(Oc5ccc[n+](C)c5)ccc4c4[n]3[Zn][n]3c(c5ccc(Oc6ccc[n+](C)c6)cc5c3=NC3=NC(=N4)c4cc(Oc5ccc[n+](C)c5)ccc43)=N2)c1.O=S(=O)(O)O.O=S(=O)(O)O.O=S(=O)([O-])[O-].O=S(=O)([O-])[O-]    80

Shifting focus to the compound that follows.
Item O=S(=O)([O-])c1ccc(Oc2cccc3c2C2=Cc4c5cccc(Oc6ccc(S(=O)(=O)[O-])c7cccnc67)c5c5[n]4[Zn][n]4c(c6cccc(Oc7ccc(S(=O)(=O)[O-])c8cccnc78)c6c4=CC3=N2)=CC2=NC(=C5)c3cccc(Oc4ccc(S(=O)(=O)[O-])c5cccnc45)c32)c2ncccc12.[Na+].[Na+].[Na+].[Na+] has what recorded EC50?
2470

---

Collected λF, fluorescence emission maximum values appear next to each entry.
Assay: Absorption and fluorescence emission spectra in DMF
Format: physicochemical
Conditions: in DMF
The reply should contain only the number, in nm.

Consider the following illustrative entries.
Cc1cc(Cn2cc[n+](C)c2)c(Oc2c3c(c(C)c(C)[n+]2C)C2=NC3=Nc3c4cc(SC(C)(C)C)c(SC(C)(C)C)cc4c4[n]3[Zn][n]3c(c5cc(SC(C)(C)C)c(SC(C)(C)C)cc5c3=N2)=NC2=NC(=N4)c3cc(SC(C)(C)C)c(SC(C)(C)C)cc32)c(Cn2cc[n+](C)c2)c1.[I-].[I-].[I-] [C2Zn]    718
Cc1cc(OCc2cn(CCOCCOCCO)nn2)c(Oc2cc3c(cc2Oc2c(OCc4cn(CCOCCOCCO)nn4)cc(C)cc2OCc2cn(CCOCCOCCO)nn2)C2=Nc4c5ccccc5c5[n]4[Zn][n]4c(c6ccccc6c4=NC3=N2)=NC2=NC(=N5)c3ccccc32)c(OCc2cn(CCOCCOCCO)nn2)c1 [N3Zn]    681

Quick one: λF, fluorescence emission maximum of Cc1cc(OCc2cn(CCO[C@@H]3O[C@H](CO)[C@@H](O)[C@H](O)[C@H]3O)nn2)c(Oc2cc3c(cc2Oc2c(OCc4cn(CCO[C@@H]5O[C@H](CO)[C@@H](O)[C@H](O)[C@H]5O)nn4)cc(C)cc2OCc2cn(CCO[C@@H]4O[C@H](CO)[C@@H](O)[C@H](O)[C@H]4O)nn2)C2=Nc4c5ccccc5c5[n]4[Zn][n]4c(c6ccccc6c4=NC3=N2)=NC2=NC(=N5)c3ccccc32)c(OCc2cn(CCO[C@@H]3O[C@H](CO)[C@@H](O)[C@H](O)[C@H]3O)nn2)c1 [N4Zn] ?
681

---

Experiment: Fluorescence lifetime in DMF
Format: physicochemical
Catalogue of τF1, fluorescence lifetime (relative amplitude in brackets) readings, one per entry.
Write the answer as a number in ns, unit excluded.

Reference set (2 entries):
O=S(=O)([O-])c1ccc(Oc2ccc3c(c2)C2=Cc4c5ccc(Oc6ccc(S(=O)(=O)[O-])c7cccnc67)cc5c5[n]4[Zn][n]4c(c6ccc(Oc7ccc(S(=O)(=O)[O-])c8cccnc78)cc6c4=CC3=N2)=CC2=NC(=C5)c3ccc(Oc4ccc(S(=O)(=O)[O-])c5cccnc45)cc32)c2ncccc12.[Na+].[Na+].[Na+].[Na+]    3.14
C=Cc1c(C)c2cc3nc(cc4[nH]c(cc5nc(cc1[nH]2)C(C)=C5CCC(=O)O)c(CCC(=O)OC)c4C)[C@@]1(C)C3=CC=C(C(=O)OC)[C@H]1C(=O)OC [verteporfin, reference compound]    6.05

Please give the measured τF1, fluorescence lifetime (relative amplitude in brackets) for this compound: Cc1cc(Cn2cc[n+](C)c2)c(Oc2c3c(c(C)c(C)[n+]2C)C2=NC3=Nc3c4cc(SC(C)(C)C)c(SC(C)(C)C)cc4c4[n]3[Zn][n]3c(c5cc(SC(C)(C)C)c(SC(C)(C)C)cc5c3=N2)=NC2=NC(=N4)c3cc(SC(C)(C)C)c(SC(C)(C)C)cc32)c(Cn2cc[n+](C)c2)c1.[I-].[I-].[I-]
1.67

// τF1, fluorescence lifetime (relative amplitude in brackets) lookup, key: Cc1cc(Cn2cc[n+](C)c2)c(Oc2c3c(c(C)c(C)[n+]2C)C2=Nc4c5c(Oc6c(Cn7cc[n+](C)c7)cc(C)cc6Cn6cc[n+](C)c6)[n+](C)c(C)c(C)c5c5[n]4[Zn][n]4c(c6c(C)c(C)[n+](C)c(Oc7c(Cn8cc[n+](C)c8)cc(C)cc7Cn7cc[n+](C)c7)c6c4=NC4=NC(=N5)c5c4c(C)c(C)[n+](C)c5Oc4c(Cn5cc[n+](C)c5)cc(C)cc4Cn4cc[n+](C)c4)=NC3=N2)c(Cn2cc[n+](C)c2)c1.[I-].[I-].[I-].[I-].[I-].[I-].[I-].[I-].[I-].[I-].[I-].[I-] [C11Zn]
1.41

Which τF1, fluorescence lifetime (relative amplitude in brackets) value belongs to COCCOCCOCCOCCOc1ccc(OCCOCCOCCOCCOC)c2c1C1=NC2=Nc2c3ccccc3c3[n]2[Zn][n]2c(c4ccccc4c2=N1)=NC1=NC(=N3)c2ccccc21 ?
2.41
